Target: T1, recombinant human IL-23R/Fc chimera (R&D Systems) (human, UniProt Q5VWK5 24-353)
T1 construct: bought; also called human IL-23R/Fc fusion protein; rhIL23RFc
T1 sequence (looked up): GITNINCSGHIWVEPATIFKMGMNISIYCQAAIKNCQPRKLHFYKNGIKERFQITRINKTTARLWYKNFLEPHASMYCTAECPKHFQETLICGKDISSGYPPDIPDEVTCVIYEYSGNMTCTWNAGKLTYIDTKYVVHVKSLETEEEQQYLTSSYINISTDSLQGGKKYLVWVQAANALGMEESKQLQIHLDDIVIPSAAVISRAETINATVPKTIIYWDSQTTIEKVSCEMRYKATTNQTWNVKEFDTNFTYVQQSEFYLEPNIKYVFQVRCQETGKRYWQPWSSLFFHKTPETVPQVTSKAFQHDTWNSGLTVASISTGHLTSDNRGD
Assay: SPR (Biacore), captured IL-23R/Fc, ATRIMER
measurement.name: Ka (M⁻¹)
// return numeric value only (unit: M⁻¹, not printed)

Use the examples below as a reference point.
- binder: "101-80-5H3 ATRIMER (designed binder, ATRIMER is a homotrimer; one protomer is given., one residue deleted from Loop 4 (-GVFG); the GlyGly to AlaAla change; not shown: C-terminal purification tag: Myc/His6 (pANA4) or HA-StrepII (pANA10)) EPPTQKPKKIVNAKKDVVNTKMFEELKSRLDTLAQEVALLKEQQALQTVCLKGTKVHMKCFLAFTQTKTFHEASEDCISRGGTLSTPQTGSENDALYEYLRQSVGNEAEIWLGLNGSALTNTWVDMTGARIAYKNWEPPAPYHPMAAGVFGENCAVLSGAANGKWFDKRCRDQLPYICQFGIV"
  Ka / M⁻¹: "1.55e+08"
- binder: "101-54-4B10 ATRIMER (designed binder, ATRIMER is a homotrimer; one protomer is given., not shown: C-terminal purification tag: Myc/His6 (pANA4) or HA-StrepII (pANA10)) EPPTQKPKKIVNAKKDVVNTKMFEELKSRLDTLAQEVALLKEQQALQTVCLKGTKVHMKCFLAFTQTKTFHEASEDCISRGGTLSTPQTGSENDALYEYLRQSVGNEAEIWLGLNGSALTNTWVDMTGARIAYKNWERPPLYQPGGGFGYFGENCAVLSGAANGKWFDKRCRDQLPYICQFGIV"
  Ka / M⁻¹: "1.11e+09"

Request: Look up Ka: 101-113-6C102 ATRIMER (designed binder, ATRIMER is a homotrimer; one protomer is given., not shown: C-terminal purification tag: Myc/His6 (pANA4) or HA-StrepII (pANA10)) EPPTQKPKKIVNAKKDVVNTKMFEELKSRLDTLAQEVALLKEQQALQTVCLKGTKVHMKCFLAFTQTKTFHEASEDCISRGGTLSTPQTGSENDALYEYLRQSVGNEAEIWLGLNGSNVTQTWVDMTGARIAYKNWEPPPPHHPQGGFGVFGENCAVLSGAANGKWFDKRCRDQLPYICQFGIV
Result: 9.62e+08
